Entry source: paper PMC3959874

test: Serum drug concentration after topical skin application; conditions: C57BL/6, mouse, serum
measurement-label: concentration at 1 h

So for CC(C)Cn1cnc2c(N)nc3ccccc3c21 [IMQ, imiquimod, reference compound] , the logged concentration at 1 h turned out to be 0.139 ng/mL

----------
biological target: CYP2D6 (Homo sapiens, UniProt P10635); experiment: Cytochrome P450 enzyme assay; format: in vitro ADME; conditions: human
Sequence (P10635 whole entry): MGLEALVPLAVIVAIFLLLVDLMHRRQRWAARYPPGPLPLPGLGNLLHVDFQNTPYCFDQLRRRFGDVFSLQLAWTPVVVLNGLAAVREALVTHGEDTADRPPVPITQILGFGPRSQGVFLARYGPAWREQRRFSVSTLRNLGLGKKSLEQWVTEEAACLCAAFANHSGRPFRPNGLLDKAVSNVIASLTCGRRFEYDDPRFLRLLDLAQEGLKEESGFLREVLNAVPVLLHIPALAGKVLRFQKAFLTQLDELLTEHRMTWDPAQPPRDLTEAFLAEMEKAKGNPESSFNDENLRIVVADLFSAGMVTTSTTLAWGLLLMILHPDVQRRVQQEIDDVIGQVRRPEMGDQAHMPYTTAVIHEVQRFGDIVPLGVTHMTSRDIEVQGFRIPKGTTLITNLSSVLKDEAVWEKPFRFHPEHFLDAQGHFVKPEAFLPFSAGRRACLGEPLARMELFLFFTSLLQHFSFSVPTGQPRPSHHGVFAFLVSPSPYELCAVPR
measurement-label: inhibition at 45 min, 10 µM (%)
Lab book: enter the figure in %, no units written.

So for CC(C)Cn1cnc2c(N)nc3ccccc3c21 [IMQ, imiquimod, reference compound] , the logged inhibition at 45 min, 10 µM turned out to be 29
